The following compounds were reported with pKi values on 5-hydroxytryptamine receptor 2A (Rattus norvegicus, UniProt P14842) in different studies.
Sequence (P14842 whole entry): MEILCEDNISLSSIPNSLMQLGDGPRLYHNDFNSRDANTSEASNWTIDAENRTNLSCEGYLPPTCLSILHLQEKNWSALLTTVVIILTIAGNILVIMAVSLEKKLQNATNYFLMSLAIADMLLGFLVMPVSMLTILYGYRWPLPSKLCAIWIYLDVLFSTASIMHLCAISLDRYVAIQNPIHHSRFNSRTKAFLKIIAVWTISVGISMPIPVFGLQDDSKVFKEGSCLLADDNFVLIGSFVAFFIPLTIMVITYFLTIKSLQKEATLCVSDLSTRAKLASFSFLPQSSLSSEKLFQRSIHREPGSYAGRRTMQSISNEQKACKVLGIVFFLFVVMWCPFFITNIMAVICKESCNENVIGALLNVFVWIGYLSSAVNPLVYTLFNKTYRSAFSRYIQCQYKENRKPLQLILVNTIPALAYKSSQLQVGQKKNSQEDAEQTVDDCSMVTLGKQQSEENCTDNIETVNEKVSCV
pKi: −log10 of the molar value.
pKi below 6 gives label 0; pKi at or above it gives label 1.

Could you verify whether the entry O=C1/C(=C/c2ccc(Cl)cc2)c2ccccc2N1CCCN1CCN(c2cccc(Cl)c2)CC1 shows pKi of no less than 6?
label 1

API: above_or_equal(metric=pKi, cutoff=6) for item O=C1NC2(CCC(c3ccccc3)CC2)C(=O)N1CCCCN1CCN(c2ccccc2)CC1 (stereo not given)
label 1

Given Clc1ccc(-n2cc(CCCCN3CCN(c4ccccc4)CC3)cn2)cc1 , state whether its pKi is at least 6.
label 1

Reported pKi reaches at least 6 for Clc1ccc(-n2cc(COCCN3CCN(c4ccccc4)CC3)cn2)cc1 ?
label 0

API: above_or_equal(metric=pKi, cutoff=6) for item FC(F)(F)c1ccc(OC(CCN2CCN(c3nsc4ccccc34)CC2)c2ccccc2)cc1 (stereo not given)
label 1

Given the entry O=c1oc2cc(OCCCN3CCC(c4noc5cc(F)ccc45)CC3)ccc2c2c1CCC2 , answer whether its pKi meets or surpasses 6.
label 1

Is reported pKi greater than or equal to 6 here: Cn1c2c(c3ccccc31)CN(CCCOc1ccc(Cl)cc1)CC2
label 1

Check this compound for pKi at or above 6: CC(C)Oc1ccccc1OCCNCc1cccc(C2=CCCC2)c1
label 1

***
Can Cc1nc2ccccn2c1CN1CCN(c2ccccc2)CC1 be said to have pKi at or above 6?
label 0

====

pKi values for 5-hydroxytryptamine receptor 2A (Rattus norvegicus, UniProt P14842) compiled from several publications are listed below.
To interpret pKi, take it as minus log10 of a concentration measured in moles per litre.

Below are worked cases with known answers.
For the molecule shown here, COc1ccccc1N1CCN(CCNC(=O)[C@@H]2CCCN2C(C)=O)CC1 , give the reported pKi.
5.07

GET /values?readout=pKi&item= O=C1NC2(CCc3ccccc32)C(=O)N1CCCCN1CCN(c2cccc(Cl)c2)CC1 (stereo not given)
7.68

pKi lookup needed for O=C(NC1CCN(Cc2ccc(Cl)cc2)CC1)c1ccc2ccccc2c1 , thanks.
6.62

Item Cc1cc(=O)oc2cc(OCCCN3CCN(c4ccccn4)CC3)ccc12 has what recorded pKi?
5.97

// query pKi value for entry Clc1ccc(N2CCN(CCCc3ccccc3)CC2)cc1
6.41

Next:
# get_value(readout='pKi', item= O=[N+]([O-])c1ccccc1S(=O)(=O)N1CCC(CN2CCC(c3noc4cc(F)ccc34)CC2)CC1 )
7.57

What value of pKi has been recorded for this entry: COc1ccccc1N1CCN(CCCOc2ccc3c(OC)cc(=O)oc3c2)CC1
5.51

Could you tell me which pKi is on file for O=S1(=O)c2cccc3cccc(c23)N1CCCN1CCN(c2ccc(Cl)cc2)CC1 ?
8.30

// query pKi value for entry CN1CCc2ccc(OCCCCN3CCN(c4cccc(Cl)c4Cl)CC3)cc2C1=O
6.67

====

pKi: −log10 of the molar value.
# pKi against 5-hydroxytryptamine receptor 2A (Rattus norvegicus), merged from multiple literature sources
Classification field: 1 (yes) = pKi at or over 7; 0 (no) = pKi under 7.

Examples with answers:
Determine whether this compound has pKi no lower than 7: NCC1c2ccccc2CCc2cc(Br)ccc21 (stereo unspecified)
1 (yes)

Please tell me: is the compound Cn1c(=O)c2c(nc3nc(NCCCN4CCN(c5ccccc5)CC4)c(Br)cn32)n(C)c1=O at or over 7 in terms of pKi?
0 (no)

Dear colleague, could you confirm whether O=C(NCCN1CCN(c2ccc(F)cc2)CC1)c1ccccn1 has pKi at or above 7?
0 (no)

Reported pKi at or above 7? c1ccc(CCCCN2CCN(Cc3ccccc3)CC2)cc1
0 (no)

***
Threshold query (pKi >= 7) on COc1ccccc1N1CCN(CCCN2CCCn3c2nc2c3c(=O)n(C)c(=O)n2C)CC1
0 (no)
